All values here come from ChEMBL document CHEMBL1201862.

system: BT-549; assay: NCI tumour cell line growth inhibition, 48 h
The source made the active and inactive calls. No stated cut-off is given here; in the data, active = GI50 up to about 1.1 µM and inactive = higher.
Outcomes: active, inactive

[[record]]
molecule = "CC(NC1=CC(=O)c2ncccc2C1=O)C(O)c1ccccc1 (stereo not given)"
label_value = "inactive"

[[record]]
molecule = "CN1c2c(O)nc(N)nc2NCC1CCNc1ccc(C(=O)NC(CCC(=O)O)C(=O)O)cc1 (stereo not given)"
label_value = "inactive"

[[record]]
molecule = "CCOC(=O)c1ccc(NC(=O)O/N=C(/Cl)CC)cc1"
label_value = "inactive"

[[record]]
molecule = "CC(=O)OCC1OC(n2c(N)c(C#N)c(C)c(C#N)c2=S)C(OC(C)=O)C(OC(C)=O)C1OC(C)=O (stereo not given)"
label_value = "inactive"

[[record]]
molecule = "CCOC(=O)N1CCN(Cc2cc(=O)n3cc(C)ccc3n2)CC1"
label_value = "inactive"

[[record]]
molecule = "N=C(N)N/N=C/c1c(-c2ccccc2[N+](=O)[O-])nc2sccn12"
label_value = "inactive"

[[record]]
molecule = "Cc1cc(S(=O)(=O)Nc2nc3ccccc3n2-c2ccccc2)c(S)cc1Cl"
label_value = "inactive"

[[record]]
molecule = "Clc1ccc(OCc2nnc(COc3ccc(OCc4nnc(COc5ccc(Cl)cc5Cl)o4)c(Cl)c3)o2)c(Cl)c1"
label_value = "inactive"

[[record]]
molecule = "c1ccc2c(c1)CCN1CCc3c([nH]c4ccccc34)C21 (stereo not given)"
label_value = "inactive"

[[record]]
molecule = "CC1CNC(c2ccc3c(c2)Cc2cc(C4=NC(C)CN4)ccc2-3)=N1 (stereo not given)"
label_value = "inactive"

[[record]]
molecule = "C=C(CO)C(=O)OC1CC(=C)C2CC(O)C(C)C2C2OC(=O)C(=C)C12 (stereo not given)"
label_value = "inactive"

[[record]]
molecule = "FC(F)(F)c1cnc(N/N=C(/c2ccccc2)c2ccccn2)c(Cl)c1"
label_value = "inactive"

[[record]]
molecule = "COc1cc2c(cc1OC)C1c3ccccc3CCCN1CC2 (stereo not given)"
label_value = "inactive"

[[record]]
molecule = "CC1=CN(c2ccccc2)S2=C1c1sc3c(c1N2c1ccc(Br)cc1)CCCC3 (stereo not given)"
label_value = "inactive"

[[record]]
molecule = "O=[N+]([O-])c1cccc2nc3ccccc3c(NCCN(CCO)CCO)c12"
label_value = "active"

[[record]]
molecule = "Cn1c(=O)c(C(=O)Nc2nc(C34CC5CC(CC(C5)C3)C4)cs2)c(O)c2ccccc21"
label_value = "inactive"

[[record]]
molecule = "COC1CC(CC2CCC(C)C(C(C)C(=O)O)O2)OC2(OC(C)(C3CCC(C)(C4OC(C5OC(O)(CO)C(C)CC5C)CC4C)O3)CC2C)C1C (stereo not given)"
label_value = "active"

[[record]]
molecule = "CC(=O)Oc1ccc2c(c1)c1c(=O)oc(C)nc1n2Cc1ccccc1"
label_value = "inactive"

[[record]]
molecule = "O=c1c2ccccc2nc2sc(/N=C/C=C/c3ccccc3)nn12"
label_value = "inactive"

[[record]]
molecule = "C[n+]1ccccc1/C1=c2\\cc/c([nH]2)=C(\\c2cccc[n+]2C)C2=N/C(=C(/c3cccc[n+]3C)C3C=CC(N3)/C(c3cccc[n+]3C)=C3/C=CC1=N3)C=C2"
label_value = "inactive"

[[record]]
molecule = "COc1ccc(NC(=S)Nc2c(C)n(C)n(-c3ccccc3)c2=O)cc1"
label_value = "inactive"

[[record]]
molecule = "CCOC(=O)c1sc2nc(SC)nc3c2c1N=CN3c1ccc(Br)cc1"
label_value = "inactive"

[[record]]
molecule = "Clc1cc(OC23CC4CC(CC(C4)C2)C3)nc(Cl)n1"
label_value = "inactive"

[[record]]
molecule = "O=c1[nH]n(CCc2ccccc2CCl)c2ccc([N+](=O)[O-])cc12"
label_value = "inactive"

[[record]]
molecule = "Cc1ccc2c(O)cc(-c3ccc(F)cc3)nc2n1"
label_value = "inactive"


----------
Listed compounds paired with reported GI50
system: PC-3; assay: NCI tumour cell line growth inhibition, 48 h
The source made the active and inactive calls. Rule as the data show it: active = GI50 up to about 1.1 µM and inactive = higher.
Assay readout: GI50

[[record]]
compound = "COc1cc2c(cc1O)CCN(C)[C@H]2Cc1ccc(Oc2c(O)c(OC)cc3c2C[C@H]2c4c(c(OC)c(OC)c(OC)c4-3)CCN2C)cc1 [THALIFABERIDINE]"
assay_readout = "GI50"
value_reported = "4.31 µM (inactive)"

[[record]]
compound = "O=C1OCN(c2ccccc2)C12CCN(Cc1ccccc1)CC2"
assay_readout = "GI50"
value_reported = "24.7 µM (inactive)"

[[record]]
compound = "COC(=O)c1sc(C(=O)OC)c2c1CSC2"
assay_readout = "GI50"
value_reported = "> 100 µM (inactive)"

[[record]]
compound = "COC1CC(CC2CCC(C)C(C(C)C(=O)O)O2)OC2(OC(C)(C3CCC(C)(C4OC(C5OC(O)(CO)C(C)CC5C)CC4C)O3)CC2C)C1C (stereo not given)"
assay_readout = "GI50"
value_reported = "0.552 µM (active)"

[[record]]
compound = "FC(F)(F)c1cnc(N/N=C(/c2ccccc2)c2ccccn2)c(Cl)c1"
assay_readout = "GI50"
value_reported = "5.3 µM (inactive)"


----------
tested on: UACC-62; test: NCI tumour cell line growth inhibition, 48 h
Activity calls are given as the source filed them. No stated cut-off is given here; in the data, active = GI50 up to about 1.1 µM and inactive = higher.
Here, each record is paired with measured GI50 data.
Assay readout: GI50

[[record]]
compound = "Cc1cn(C2CC(N=[N+]=[N-])C(CO)O2)c(=O)n(CCCCO)c1=O (stereo unspecified)"
target_system = "UACC-62"
value_reported = "> 100 µM (inactive)"

[[record]]
compound = "COc1ccc(/C=C/C(=O)c2sc(Nc3ccc([N+](=O)[O-])cc3)nc2C)cc1"
target_system = "UACC-62"
value_reported = "29.9 µM (inactive)"

[[record]]
compound = "O=C(O)CCc1ccc2c(c1)C(=O)CC2"
target_system = "UACC-62"
value_reported = "> 100 µM (inactive)"

[[record]]
compound = "CC(C)C(O)(C(C)C)C(C)C"
target_system = "UACC-62"
value_reported = "> 100 µM (inactive)"

[[record]]
compound = "C=CC/C(C(=O)OC)=C(/C(=O)OC)N(CCC)CCC"
target_system = "UACC-62"
value_reported = "> 100 µM (inactive)"

[[record]]
compound = "COC(=O)C1=C(O)C(C(=O)OC)[C@]2(O)[C@H](C(=O)OC)[C@H]1C[C@@H](c1ccc(C(F)(F)F)cc1)[C@H]2C(=O)OC (stereo partly specified)"
target_system = "UACC-62"
value_reported = "3.87 µM (inactive)"

[[record]]
compound = "CN1S(=O)(=O)N(C)P12(N=P(CP(=NP13(N(C)S(=O)(=O)N1C)N(C)S(=O)(=O)N3C)(c1ccccc1)c1ccccc1)(c1ccccc1)c1ccccc1)N(C)S(=O)(=O)N2C"
target_system = "UACC-62"
value_reported = "> 100 µM (inactive)"

[[record]]
compound = "CCOC(=O)c1ccc(NC(=O)O/N=C(/Cl)CC)cc1"
target_system = "UACC-62"
value_reported = "21 µM (inactive)"

[[record]]
compound = "COC(=O)/C(=C/CC(N=C(c1ccccc1)c1ccccc1)C(=O)OC)N=C(c1ccccc1)c1ccccc1 (stereo unspecified)"
target_system = "UACC-62"
value_reported = "> 100 µM (inactive)"

[[record]]
compound = "CCC(C)C(NC(=O)C(CCCC[N+](=N)N)NC(=O)C(CCCC[N+](=N)N)NC(=O)c1ccc(OC)cc1)C(=O)NC(CCCC[N+](=N)N)C(=O)N1CCCC1C(=O)NC(CCCCN)C(=O)NC(CC(C)C)C(N)=O (stereo unspecified)"
target_system = "UACC-62"
value_reported = "> 100 µM (inactive)"

[[record]]
compound = "NC(=O)CSc1nc2ccccc2c(=O)n1N"
target_system = "UACC-62"
value_reported = "> 100 µM (inactive)"


----------
tested on: SK-OV-3; experiment: NCI tumour cell line growth inhibition, 48 h
Calls of active or inactive are those of the source. Cut-off read from the data, not from the text of the source: active = GI50 up to about 1.1 µM and inactive = higher.
Classes used: active, inactive

[[record]]
compound = "CC(=O)Nc1ccc(N2C(=O)CS(=O)(=O)C2c2cccc(Oc3ccccc3)c2)cc1 (stereo not given)"
label_value = "inactive"

[[record]]
compound = "Clc1cc(OC23CC4CC(CC(C4)C2)C3)nc(Cl)n1"
label_value = "inactive"

[[record]]
compound = "C/C(=N\\Nc1nc2ccccc2n1C)c1cnccn1"
label_value = "active"

[[record]]
compound = "COc1ccccc1-n1nnc2c(N)nc(N)nc21"
label_value = "inactive"

[[record]]
compound = "O=[N+]([O-])c1cccc(/N=C2\\c3ccccc3CN2c2cccc([N+](=O)[O-])c2)c1"
label_value = "inactive"

[[record]]
compound = "CNc1ccc(OC)cc1S(=O)(=O)c1ccccc1[N+](=O)[O-]"
label_value = "inactive"

[[record]]
compound = "CCOC(=O)c1sc2nc(SC)nc3c2c1NCN3c1ccc2c(c1)OCO2"
label_value = "inactive"

[[record]]
compound = "Cc1ccc(C(=O)Nc2ccc(CP(=O)(O)O)cc2)cc1NC(=O)Nc1cc(C(=O)Nc2ccc(CP(=O)(O)O)cc2)ccc1C"
label_value = "inactive"

[[record]]
compound = "COC1CC(n2ccc(=O)[nH]c2=O)OC1CO (stereo not given)"
label_value = "inactive"

[[record]]
compound = "CC1(C)COC2(OC1)C1=NS(=O)(=O)CC13CCC2C3(C)C (stereo not given)"
label_value = "inactive"

[[record]]
compound = "Cc1ccccc1OC(C)C(=O)NN1C(=O)CC(=O)N(c2ccc(Cl)cc2)C1=S (stereo not given)"
label_value = "inactive"

[[record]]
compound = "CC(C)/C(Cl)=N\\OC(=O)Nc1ccc(F)cc1"
label_value = "inactive"

[[record]]
compound = "CC#CC1C(OC(=O)c2ccccc2)CCCC1(CI)N=[N+]=[N-] (stereo not given)"
label_value = "inactive"

[[record]]
compound = "Cc1ccc(S(=O)(=O)N/N=C2\\CC3C4CCC3C2C4)cc1 (stereo not given)"
label_value = "inactive"

[[record]]
compound = "CN(CCCNC(=O)c1c2ccc3ccccc3c2nn1C)CCCNC(=O)c1c2ccc3ccccc3c2nn1C"
label_value = "inactive"

